Entry source: patent US20110184027A1

target: SCD-1 (Homo sapiens, UniProt O00767); assay: Whole cell based SCD-1 assay in human skin cell line A431 (tritiated stearoyl CoA, labelled water release); parameters: includes cells which express the SCD-1 gene product endogenously; endogenous in cells; host or cells: A431 (ATCC CRL 1555), not induced; details: ratio of EC35 skin cells (A431) to EC35 liver cells (HepG2)
measurement_name: Fold Skin:liver
Give bare numbers.

The examples below pair each entry with its known result.
Cc1nc(C#Cc2ccc(O)cc2)sc1C(=O)NCCc1ccccc1 [compound 2]: 2.00
Cc1nc(C#Cc2ccc(O)cc2)sc1C(=O)NCc1cccnc1 [compound 1]: 0.93
Cc1nc(C#Cc2cccc(O)c2)sc1C(=O)NCc1ccccc1 [compound 1]: 2.00
Cc1nc(-n2cnn(Cc3cccc(F)c3F)c2=O)sc1C(=O)NCc1ccccc1 [compound 3]: 1.15

Proceeding to the next compound to report its Fold Skin:liver.
Dear colleague, I am looking for the recorded Fold Skin:liver of the following compound: Cc1nc(-n2cnn(Cc3ccc(F)cc3)c2=O)sc1C(=O)NCc1ccccc1 [compound 2] 0.95

* * *

target: UniProt O00767; assay: Whole cell based SCD-1 assay in human skin cell line A431 (tritiated stearoyl CoA, labelled water release); design: includes cells which express the SCD-1 gene product endogenously; endogenous in cells; host or cells: A431 (ATCC CRL 1555), not induced; conditions: A-431; A431 human skin cells; EC35; read-out: hSkin EC35
Binary call on IC35 with cut-off 200 nM: strictly below means true, and equality or higher means false.

Below are worked cases with known answers.
Cc1nc(C#Cc2cccc(O)c2)sc1C(=O)NCc1ccccc1: false
Cc1nc(-n2cnn(Cc3ccc(F)cc3)c2=O)sc1C(=O)NCc1ccccc1: true
Cc1nc(C#Cc2ccc(O)cc2)sc1C(=O)NCc1cccnc1: false
Cc1nc(C#Cc2ccc(O)cc2)sc1C(=O)NCc1ccc(Cl)cc1: false
Cc1nc(-c2ccc(-c3ccc(O)cc3)nc2)sc1C(=O)NCCCc1ccccc1: true
Cc1nc(-c2ccc(-c3ccc(O)cc3)nc2)sc1C(=O)NCCc1ccccc1: true

Below 200 nM on IC35? Entry Cc1nc(C#Cc2ccc(O)cc2)sc1C(=O)NCCc1ccccc1 false

Same thing, different compound: Cc1nc(-n2cnn(Cc3cccc(F)c3F)c2=O)sc1C(=O)NCc1ccccc1 true

* * *

Target: SCD-1 (Homo sapiens, UniProt O00767)
Sequence (O00767 1-359): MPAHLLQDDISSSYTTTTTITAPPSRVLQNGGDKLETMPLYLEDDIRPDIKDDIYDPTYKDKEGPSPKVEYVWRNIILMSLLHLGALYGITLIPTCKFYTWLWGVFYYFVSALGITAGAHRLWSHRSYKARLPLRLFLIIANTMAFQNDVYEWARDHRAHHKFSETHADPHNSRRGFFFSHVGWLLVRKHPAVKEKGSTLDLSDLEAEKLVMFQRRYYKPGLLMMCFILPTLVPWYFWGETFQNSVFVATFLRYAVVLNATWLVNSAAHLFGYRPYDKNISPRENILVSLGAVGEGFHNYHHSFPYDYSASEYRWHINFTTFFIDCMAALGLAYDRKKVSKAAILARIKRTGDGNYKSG
Experiment: Whole cell based SCD-1 assay in human liver cell line HepG2 (tritiated stearoyl CoA, labelled water release)
Set-up: includes cells which express the SCD-1 gene product endogenously; endogenous in cells; host or cells: A431 (ATCC CRL 1555), not induced
Conditions: HepG2 human liver cells; EC35; read-out: hLiver EC35
Assignment: determine reported IC35 for the given compounds.
Numbers only, in nM.

Cc1nc(C#Cc2ccc(O)cc2)sc1C(=O)NCc1cccnc1: 2300
Cc1nc(C#Cc2ccc(O)cc2)sc1C(=O)NCCc1ccccc1: 490
Cc1nc(-c2ccc(-c3ccc(O)cc3)nc2)sc1C(=O)NCCCc1ccccc1: 266

Field: IC35. Fill in for each record below.
1. Cc1nc(C#Cc2ccc(O)cc2)sc1C(=O)NCc1ccc(Cl)cc1
2. Cc1nc(C#Cc2ccc(O)cc2)sc1C(=O)NCc1ccccc1
3. Cc1nc(C#Cc2ccc(O)cc2)sc1C(=O)NCCc1ccc(F)cc1
4. Cc1nc(-n2cnn(Cc3cccc(F)c3F)c2=O)sc1C(=O)NCc1ccccc1

1: 698; 2: 363; 3: 480; 4: 29.4

Field: IC35. Fill in for each record below.
1. Cc1nc(-n2cnn(Cc3ccc(F)cc3)c2=O)sc1C(=O)NCc1ccccc1
2. Cc1nc(C#Cc2cccc(O)c2)sc1C(=O)NCc1ccccc1
3. Cc1nc(-c2ccc(-c3ccc(O)cc3)nc2)sc1C(=O)NCCc1ccccc1

39.5
3440
438
